Test system: Angiotensin-converting enzyme (Cavia porcellus)
test-description: In vitro inhibitory activity against Angiotensin I converting enzyme from unpurified guinea pig serum; No significant activity

compound | IC50
CC(SC(CCc1ccccc1)C(=O)O)C(=O)NC1(C(=O)O)CCCC1 (centres undefined) | No significant activity
CC(SC(CCc1ccccc1)C(=O)O)C(=O)NC1(C(=O)O)CCC(c2ccccc2)CC1 (centres undefined) | No significant activity
CC(C(=O)N1CCC[C@H]1C(=O)O)S(=O)(=O)C(CCc1ccccc1)C(=O)O (some centres undefined) | No significant activity
CCOC(=O)C(CCc1ccccc1)S(=O)(=O)C(C)C(=O)N1CCC[C@H]1C(=O)O (some centres undefined) | No significant activity
